# TARGET: T1, human OX40 expressed on DO11.10 cells (DO11.10-hOX40) (human, UniProt P43489 29-277)
# T1 sequence: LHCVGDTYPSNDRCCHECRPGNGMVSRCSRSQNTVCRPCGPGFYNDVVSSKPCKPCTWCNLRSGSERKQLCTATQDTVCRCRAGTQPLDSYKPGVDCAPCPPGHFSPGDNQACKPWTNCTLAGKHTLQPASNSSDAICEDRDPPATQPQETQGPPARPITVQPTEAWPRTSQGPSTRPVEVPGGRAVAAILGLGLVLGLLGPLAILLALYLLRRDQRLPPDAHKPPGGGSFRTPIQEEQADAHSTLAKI
# PROTOCOL: cell-based or functional assay
OBSERVED PROPERTY: SEA assay (PBMC), hIL-2 max response, no crosslinker (pg/mL)
I only need the number, in pg/mL, no unit after it.

Some solved cases for reference:
BINDER	MEASURED VALUE
FS20-22-49AA/FS30-10-3 (bispecific antibody, human IgG1, kappa, L234A L235A, V domains shown, IgG1 with LALA; also called OX40/CD137 mAb^2) VH: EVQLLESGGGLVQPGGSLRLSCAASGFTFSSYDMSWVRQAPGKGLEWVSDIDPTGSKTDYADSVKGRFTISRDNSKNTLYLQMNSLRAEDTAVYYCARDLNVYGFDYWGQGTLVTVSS VL: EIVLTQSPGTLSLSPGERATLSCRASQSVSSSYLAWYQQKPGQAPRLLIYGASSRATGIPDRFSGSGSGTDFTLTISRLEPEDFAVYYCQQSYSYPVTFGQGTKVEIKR	34900
FS20-22-49AA/FS30-10-12 (bispecific antibody, human IgG1, kappa, L234A L235A, V domains shown, IgG1 with LALA; also called OX40/CD137 mAb^2) VH: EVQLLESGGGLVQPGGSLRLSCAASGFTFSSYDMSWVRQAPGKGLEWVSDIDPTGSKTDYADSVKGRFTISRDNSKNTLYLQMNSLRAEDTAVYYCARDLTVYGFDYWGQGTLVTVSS VL: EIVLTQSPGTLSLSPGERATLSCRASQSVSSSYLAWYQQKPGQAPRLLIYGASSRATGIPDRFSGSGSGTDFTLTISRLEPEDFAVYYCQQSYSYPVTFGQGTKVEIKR	24900

I'd like to know its SEA assay (PBMC), hIL-2 max response, no crosslinker. The binder in question is FS20-22-49AA/FS30-5-37 (bispecific antibody, human IgG1, kappa, L234A L235A, V domains shown, IgG1 with LALA; also called OX40/CD137 mAb^2) VH: EVQLLESGGGLVQPGGSLRLNCAASGFTFSSYAMSWVRQAPGKGLEWVSAISGSGGSTYYADSVKGRFTISRDNSKNTLYLQMNSLRAEDTAVYYCARSYDKYWGSSIYSGLDYWGQGTLVTVSS VL: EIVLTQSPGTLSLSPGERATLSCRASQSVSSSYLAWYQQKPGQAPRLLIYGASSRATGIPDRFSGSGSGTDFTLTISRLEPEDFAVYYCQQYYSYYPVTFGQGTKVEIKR
29200

I'd like to know its SEA assay (PBMC), hIL-2 max response, no crosslinker. The binder in question is FS20-22-49AA/FS30-35-14 (bispecific antibody, human IgG1, kappa, L234A L235A, V domains shown, IgG1 with LALA; also called OX40/CD137 mAb^2) VH: EVQLLESGGGLVQPGGSLRLSCAASGFTFSAYNIHWVRQAPGKGLEWVSDISPYGGATNYADSVKGRFTISRDNSKNTLYLQMNSLRAEDTAVYYCARNLYELSAYSYGADYWGQGTLVTVSS VL: EIVLTQSPGTLSLSPGERATLSCRASQSVSSSYLAWYQQKPGQAPRLLIYGASSRATGIPDRFSGSGSGTDFTLTISRLEPEDFAVYYCQQYYYSSPITFGQGTKVEIKR
32400
